Reported IC50 values for the following compounds.
Test system: OCI-Ly10 cells
Assay: Dose-response study of BTK inhibitor in the presence of BCL-2 inhibitor, OCI-Ly10
Format: cell-based
Conditions: Homo sapiens, OCI-Ly10, in the presence of obatoclax mesylate 100 nM; read-out: Inhibitory activity on cell proliferation OCI-Ly10 IC50
Experimental: The OCI-Ly10 or U2932 cells (20000 cells/well) were seeded into 96-well plates (cell plates), to which the test compound diluted with the medium was added at final concentrations of 0.009 nM to 30000 nM (a final DMSO concentration of 0.3%), and after 96 hours of culture, an Alamar Blue reagent (Thermo Fisher Scientific Inc.) was added. […]
Could you give me the number in nM? Just the number is fine.

| SMI | MEASURED PARAMETER | RESULT NUMBER |
| --- | --- | --- |
| Nc1nc(-c2cccc(-n3ccc4cc(C5CC5)cc(F)c4c3=O)c2CO)c2cc(C3=CCN(C4COC4)CC3)[nH]c2n1 | IC50 | 0.9 |

Now let's try a different one.
// Input: `Cn1cc(Nc2nc(N)nc(-c3cccc(-n4ccc5cc(C6CC6)cc(F)c5c4=O)c3CO)n2)cn1` . Output its IC50 only.
28

###

system: U2932 cells; test: Cell proliferation suppression test of single agents, U2932 (Alamar Blue, 96 h); assay type: cell-based, Human; conditions: Homo sapiens, U2932, single agent, read-out: Inhibitory Activity on cell proliferation IC50 U2932
pIC50: −log10 of the molar value. Where a name gives a salt, the structure may show the parent alone.
Mark 0.0 for pIC50 values under 6, and 1.0 for everything at or above.

Here are 3 molecules together with their reported answers.
| MOLECULE | QUALITATIVE LABEL |
| --- | --- |
| Nc1nc(-c2cccc(-n3ccc4cc(C5CC5)cc(F)c4c3=O)c2CO)c2cc(C3=CCN(C4COC4)CC3)[nH]c2n1 | 0.0 |
| COC1=CC(c2cc3ccccc3[nH]2)=N/C1=C\c1[nH]c(C)cc1C [obatoclax mesylate] | 1.0 |
| Cn1cc(Nc2nc(N)nc(-c3cccc(-n4ccc5cc(C6CC6)cc(F)c5c4=O)c3CO)n2)cn1 | 0.0 |

Now consider a different molecule.
Assess whether reported pIC50 for `CC1(C)CCC(c2ccc(Cl)cc2)=C(CN2CCN(c3ccc(C(=O)NS(=O)(=O)c4ccc(N[C@H](CCN5CCOCC5)CSc5ccccc5)c(S(=O)(=O)C(F)(F)F)c4)cc3)CC2)C1` sits at 6 or higher.
1.0

###

Reported IC50 values for the following compounds.
test system: U2932 cells; assay: Dose-response study of BTK inhibitor in the presence of BCL-2 inhibitor, U2932; format: cell-based; conditions: Homo sapiens, U2932, in the presence of venetoclax 100 nM; read-out: Inhibitory activity on cell proliferation U2932 IC50
Report as: number unit

| COMPOUND | IC50 |
| --- | --- |
| Cn1cc(Nc2nc(N)nc(-c3cccc(-n4ccc5cc(C6CC6)cc(F)c5c4=O)c3CO)n2)cn1 [Compound (II-A)] | 160 nM |

Now let's try a different one.
// Input: Nc1nc(-c2cccc(-n3ccc4cc(C5CC5)cc(F)c4c3=O)c2CO)c2cc(C3=CCN(C4COC4)CC3)[nH]c2n1 [Compound (I-A)] . Output its IC50 only.
14 nM
